Attribution: patent US20230374035A1

molecular target: NRAS Q61K (Homo sapiens, UniProt P01111+P62937, Q61K); assay: Disruption of BRAF RBD interaction with Ras (FRET / MOA assay); format: biochemical; settings: read-out: NRAS Q61K FRET data IC50
Sequence (P01111 whole entry Q61K, one chain of several): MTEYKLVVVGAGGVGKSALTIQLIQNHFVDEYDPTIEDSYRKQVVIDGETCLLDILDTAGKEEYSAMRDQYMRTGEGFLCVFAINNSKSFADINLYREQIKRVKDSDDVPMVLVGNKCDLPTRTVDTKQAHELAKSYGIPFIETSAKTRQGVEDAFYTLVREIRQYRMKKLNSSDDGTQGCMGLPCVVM
pIC50: −log10 of the molar value.
RESULT TYPE: pIC50

Consider CCn1c(-c2cccnc2[C@H](C)OC)c2c3cc(ccc31)-c1csc(n1)C[C@H](NC(=O)[C@H](C(C)C)N(C)C(=O)N(C)CCc1ccncc1)C(=O)N1CCC[C@H](N1)C(=O)OCC(C)(C)C2 (atropisomer, axis not shown) [Compound A557] . Its measured pIC50 is 7.00 to 8.00

Consider CCn1c(-c2cccnc2[C@H](C)OC)c2c3cc(ccc31)-c1csc(n1)C[C@H](NC(=O)[C@H](C(C)C)N(C)C(=O)N1C3COCC1C3)C(=O)N1CCC[C@H](N1)C(=O)OCC(C)(C)C2 [Compound A540] . Its measured pIC50 is 7.00 to 8.00

Consider CCn1c(-c2cccnc2[C@H](C)OC)c2c3cc(ccc31)-c1cc(O)cc(c1)C[C@H](NS(=O)(=O)CC#N)C(=O)N1CCC[C@H](N1)C(=O)OCC(C)(C)C2 (racemic) [Compound A186] . Its measured pIC50 is < 5.00

Consider CCn1c(-c2cccnc2[C@H](C)OC)c2c3cc(ccc31)-c1csc(n1)C[C@H](NC(=O)[C@H](C(C)C)N(C)C(=O)N1CC3(CC(NCCOC)C3)C1)C(=O)N1CCC[C@H](N1)C(=O)OCC(C)(C)C2 (atropisomer, axis not shown) [Compound A512] . Its measured pIC50 is 7.00 to 8.00

Consider CCn1c(-c2cccnc2[C@H](C)OC)c2c3cc(ccc31)-c1csc(n1)C[C@H](NC(=O)[C@H](C(C)C)N(C)C(=O)N1CCC[C@H](N(C)C)C1)C(=O)N1CCC[C@H](N1)C(=O)OCC(C)(C)C2 (atropisomer, axis not shown) [Compound A569] . Its measured pIC50 is 7.00 to 8.00

Others:
Consider CCn1c(-c2cccnc2[C@H](C)OC)c2c3cc(ccc31)-c1cc(O)cc(c1)C[C@H](NC(=O)[C@H](C(C)C)N(C)C(=O)[C@@H]1OCC[C@H]1c1ccccc1)C(=O)N1CCC[C@H](N1)C(=O)OCC(C)(C)C2 (atropisomer, axis not shown) [Compound A584] . Its measured pIC50 is 7.00 to 8.00

Consider CCn1c(-c2cccnc2[C@H](C)OC)c2c3cc(ccc31)-c1csc(n1)C[C@H](NC(=O)[C@H](C(C)C)N(C)C(=O)N1CC(C(=O)O)C1)C(=O)N1CCC[C@H](N1)C(=O)OCC(C)(C)C2 (atropisomer, axis not shown) [Compound A344] . Its measured pIC50 is 7.00 to 8.00

###

In this section we review reported IC50 values for a set of compounds.
target: NRAS WT (Homo sapiens, UniProt P01111+P62937); test: Disruption of BRAF RBD interaction with Ras (FRET / MOA assay); assay type: biochemical; conditions: read-out: NRAS WT FRET data IC50
Sequence (P01111 whole entry): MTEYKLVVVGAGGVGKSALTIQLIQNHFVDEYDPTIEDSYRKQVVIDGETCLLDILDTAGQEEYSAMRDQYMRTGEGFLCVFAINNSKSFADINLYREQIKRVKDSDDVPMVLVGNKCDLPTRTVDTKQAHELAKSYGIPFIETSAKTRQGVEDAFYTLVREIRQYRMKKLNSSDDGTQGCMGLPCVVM
Sequence (P62937 whole entry): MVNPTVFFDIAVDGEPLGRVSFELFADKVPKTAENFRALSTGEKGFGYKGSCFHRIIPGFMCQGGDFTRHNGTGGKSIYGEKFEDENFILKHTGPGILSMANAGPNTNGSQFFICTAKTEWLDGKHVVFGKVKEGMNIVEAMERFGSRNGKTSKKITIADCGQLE

Consider CCn1c(-c2cccnc2[C@H](C)OC)c2c3cc(ccc31)-c1cc(O)cc(c1)C[C@H](NC(=O)[C@H](C(C)C)N(C)C(=O)[C@@H]1CCN(C(=O)OC)[C@@H]1c1ccccc1)C(=O)N1CCC[C@H](N1)C(=O)OCC(C)(C)C2 (atropisomer, axis not shown) . Its measured IC50 is < 0.01 µM

Consider CCn1c(-c2cccnc2[C@H](C)OC)c2c3cc(ccc31)-c1cc(O)cc(c1)C[C@H](NS(=O)(=O)C1CS(=O)(=O)C1)C(=O)N1CCC[C@H](N1)C(=O)OCC(C)(C)C2 (racemic) . Its measured IC50 is > 10 µM

Consider CCn1c(-c2cccnc2[C@H](C)OC)c2c3cc(ccc31)-c1cc(cc(S(C)(=O)=O)c1)C[C@H](NC(=O)[C@H](C(C)C)N(C)C(C)=O)C(=O)N1CCC[C@H](N1)C(=O)OCC(C)(C)C2 (racemic) . Its measured IC50 is > 10 µM

For the next question, use this compound.
Consider CCn1c(-c2cccnc2[C@H](C)OC)c2c3cc(ccc31)-c1cc(O)cc(c1)C[C@H](NS(=O)(=O)N1CCC1)C(=O)N1CCC[C@H](N1)C(=O)OCC(C)(C)C2 (racemic) . Its measured IC50 is > 10 µM
